- experimental_target: CDK4/Cyclin D3 (Homo sapiens (Human))
- Sequence (P11802 whole entry): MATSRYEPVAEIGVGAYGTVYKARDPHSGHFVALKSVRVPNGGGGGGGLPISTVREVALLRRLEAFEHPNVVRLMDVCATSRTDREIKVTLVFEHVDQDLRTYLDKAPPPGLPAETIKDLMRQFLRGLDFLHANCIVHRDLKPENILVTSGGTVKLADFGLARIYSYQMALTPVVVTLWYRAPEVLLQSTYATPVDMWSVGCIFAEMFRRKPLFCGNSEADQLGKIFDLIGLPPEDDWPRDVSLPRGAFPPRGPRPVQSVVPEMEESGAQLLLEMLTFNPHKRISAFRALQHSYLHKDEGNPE
- Sequence (P30281 whole entry partner): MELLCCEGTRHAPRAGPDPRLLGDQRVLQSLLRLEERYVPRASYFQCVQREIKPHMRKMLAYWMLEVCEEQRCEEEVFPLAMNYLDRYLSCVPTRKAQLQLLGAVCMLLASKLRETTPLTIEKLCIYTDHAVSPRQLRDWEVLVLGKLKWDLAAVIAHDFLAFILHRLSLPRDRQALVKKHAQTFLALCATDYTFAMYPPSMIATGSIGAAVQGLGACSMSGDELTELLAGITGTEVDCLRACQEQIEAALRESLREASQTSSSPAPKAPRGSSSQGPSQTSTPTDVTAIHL
- protocol_description: biochemical
The entries below are paired with their reported Ki.

compound | Ki / nM
C[C@@]1(O)CCC[C@H]1n1c(=O)c(F)cc2cnc(NC3CCN(S(C)(=O)=O)CC3)nc21 (single isomer, unassigned) | 3.94
C[C@@]1(O)CCC[C@H]1n1c(=O)c(CC#N)cc2cnc(NC3CCN(S(C)(=O)=O)CC3)nc21 (single isomer, unassigned) | 0.34
C[C@@]1(O)CCC[C@H]1n1c(=O)c(CCO)cc2cnc(NC3CCN(S(C)(=O)=O)CC3)nc21 (single isomer, unassigned) | 0.92
CS(=O)(=O)N1CCC(Nc2ncc3ccc(=O)n([C@@H]4CCC[C@@H](O)C4)c3n2)CC1 | 3.43

----------
- experimental_target: CDK6/Cyclin D1 (Homo sapiens (Human), UniProt Q00534)
- Sequence (Q00534 whole entry): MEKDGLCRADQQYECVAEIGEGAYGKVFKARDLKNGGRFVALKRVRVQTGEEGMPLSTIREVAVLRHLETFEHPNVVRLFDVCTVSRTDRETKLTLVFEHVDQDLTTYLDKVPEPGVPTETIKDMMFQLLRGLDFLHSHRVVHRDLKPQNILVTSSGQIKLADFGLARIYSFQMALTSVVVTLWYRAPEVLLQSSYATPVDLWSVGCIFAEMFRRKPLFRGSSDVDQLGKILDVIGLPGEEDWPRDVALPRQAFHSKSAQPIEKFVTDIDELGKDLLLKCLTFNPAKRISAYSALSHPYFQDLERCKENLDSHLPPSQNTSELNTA
- Sequence (P24385 whole entry partner): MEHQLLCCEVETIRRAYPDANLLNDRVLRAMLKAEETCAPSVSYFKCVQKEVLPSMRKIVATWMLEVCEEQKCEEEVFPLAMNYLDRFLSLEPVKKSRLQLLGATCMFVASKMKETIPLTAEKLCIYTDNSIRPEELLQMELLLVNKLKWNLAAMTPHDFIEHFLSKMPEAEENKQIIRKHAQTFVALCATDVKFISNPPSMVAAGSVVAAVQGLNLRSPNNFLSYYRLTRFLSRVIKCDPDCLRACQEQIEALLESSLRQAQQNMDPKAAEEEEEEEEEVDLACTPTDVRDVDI
- protocol_description: biochemical
- assay_context: CDK6_Ki (nM), non-phosphorylated CDK6/Cyclin D1, 2 mM ATP, Morrison fit
# Ki per entry
measurement_label: Ki (nM)

compound | units_text | quantitative_readout
CNS(=O)(=O)N1CCC(Nc2ncc3cc(C)c(=O)n([C@@H]4CCC[C@@H]4C)c3n2)CC1 | nM | 46.1
C[C@@]1(O)CCC[C@H]1n1c(=O)c(C(F)F)cc2cnc(NC3CCN(S(N)(=O)=O)CC3)nc21 (single isomer, unassigned) | nM | 0.29
C[C@@]1(O)CCC[C@H]1n1c(=O)c(F)cc2cnc(NC3CCN(S(C)(=O)=O)CC3)nc21 (single isomer, unassigned) [Example 6] | nM | 2.38
CS(=O)(=O)N1CCC(Nc2ncc3ccc(=O)n([C@H]4CCC[C@H](O)C4)c3n2)CC1 | nM | 2.22

----------
- experimental_target: CDK6/Cyclin D1 (Homo sapiens (Human), UniProt Q00534)
- protocol_description: biochemical
- assay_context: CDK6_Ki (nM), non-phosphorylated CDK6/Cyclin D1, 2 mM ATP, Morrison fit
measurement_label: log10 of Ki (log10 of the value in nM)

molecule | log10 of Ki
CS(=O)(=O)N1CCC(Nc2ncc3cc(CC(N)=O)c(=O)n([C@H]4CCC[C@H](O)C4)c3n2)CC1 (single isomer, unassigned) [Example 214] | 1.92
CS(=O)(=O)N1CC[C@H](Nc2ncc3cc(Cl)c(=O)n(C4CCCC4)c3n2)[C@H](F)C1 (single isomer, unassigned) [Example 152] | -0.37
CCS(=O)(=O)N1CCC(Nc2ncc3cc(C)c(=O)n([C@@H]4CCC[C@@]4(C)O)c3n2)CC1 (single isomer, unassigned) [Example 110] | -0.55
NS(=O)(=O)N1CCC(Nc2ncc3ccc(=O)n(C4CCCC4)c3n2)CC1 [Example 13] | -0.06
CS(=O)(=O)N1CCC(Nc2ncc3cc(C(F)F)c(=O)n([C@@H]4CC[C@@H](O)C4)c3n2)CC1 (single isomer, unassigned) [Example 133] | -0.03
CS(=O)(=O)N1CCC(Nc2ncc3cc(C(F)(F)F)c(=O)n(C4CCCC4)c3n2)CC1 [Example 148] | -0.59

----------
- experimental_target: CDK2/Cyclin E1 (Homo sapiens (Human), UniProt P24941)
- protocol_description: biochemical
- assay_context: CDK2_Ki (nM), phosphorylated CDK2/Cyclin E1, 150 μM ATP, Morrison tight-binding fit
measurement_label: log10(Ki) (log10 of the value in nM)

compound | experimental_target | log10(Ki)
C=Cc1cc2cnc(NC3CCN(S(C)(=O)=O)CC3)nc2n(C2CCCC2)c1=O [Example 138] | CDK2/Cyclin E1 (Homo sapiens (Human), UniProt P24941) | -0.06
CNS(=O)(=O)N1CCC(Nc2ncc3ccc(=O)n([C@@H]4CCC[C@@]4(C)O)c3n2)CC1 (single isomer, unassigned) [Example 56] | CDK2/Cyclin E1 (Homo sapiens (Human), UniProt P24941) | -0.55
C[C@H]1CCC[C@H]1n1c(=O)c(CC(N)=O)cc2cnc(NC3CCN(S(C)(=O)=O)CC3)nc21 [Example 47] | CDK2/Cyclin E1 (Homo sapiens (Human), UniProt P24941) | -0.57
CS(=O)(=O)CS(=O)(=O)N1CCC(Nc2ncc3ccc(=O)n(C4CCCC4)c3n2)CC1 [Example 18] | CDK2/Cyclin E1 (Homo sapiens (Human), UniProt P24941) | 0.08
CS(=O)(=O)N1CCC(Nc2ncc3ccc(=O)n([C@H]4CCC[C@H](O)C4)c3n2)CC1 [Example 211] | CDK2/Cyclin E1 (Homo sapiens (Human), UniProt P24941) | 0.34
C[C@]1(O)CCC[C@@H]1n1c(=O)ccc2cnc(NC3CCN(S(=O)(=O)NC[C@H]4CCCO4)CC3)nc21 (single isomer, unassigned) [Example 65] | CDK2/Cyclin E1 (Homo sapiens (Human), UniProt P24941) | 0.69
CNS(=O)(=O)N1CCC(Nc2ncc3cc(C)c(=O)n(C4CCCC4)c3n2)CC1 [Example 23] | CDK2/Cyclin E1 (Homo sapiens (Human), UniProt P24941) | -0.11
CS(=O)(=O)N1CCC(Nc2ncc3cc(C(F)F)c(=O)n(C4CCCC4)c3n2)CC1 [Example 30] | CDK2/Cyclin E1 (Homo sapiens (Human), UniProt P24941) | 0.13
Cc1cc2cnc(NC3CCN(S(=O)(=O)C(F)F)CC3)nc2n(C2CCCC2)c1=O [Example 26] | CDK2/Cyclin E1 (Homo sapiens (Human), UniProt P24941) | 0.58
C[C@@]1(O)CCC[C@H]1n1c(=O)ccc2cnc(NC3CCN(S(=O)(=O)CS(C)(=O)=O)CC3)nc21 [Example 190] | CDK2/Cyclin E1 (Homo sapiens (Human), UniProt P24941) | -0.29
C[C@@H]1[C@H](n2c(=O)ccc3cnc(NC4CCN(S(C)(=O)=O)CC4)nc32)CC[C@@H]1O (single isomer, unassigned) [Example 208] | CDK2/Cyclin E1 (Homo sapiens (Human), UniProt P24941) | 1.09
C[C@H]1[C@H](O)CC[C@H]1n1c(=O)ccc2cnc(NC3CCN(S(C)(=O)=O)CC3)nc21 (single isomer, unassigned) [Example 210] | CDK2/Cyclin E1 (Homo sapiens (Human), UniProt P24941) | 0.73
Cn1cnc(S(=O)(=O)N2CCC(Nc3ncc4ccc(=O)n([C@@H]5CCC[C@@]5(C)O)c4n3)CC2)c1 (single isomer, unassigned) [Example 84] | CDK2/Cyclin E1 (Homo sapiens (Human), UniProt P24941) | -1.10
Cc1cc2cnc(NC3CCN(S(C)(=O)=O)CC3)nc2n([C@@H]2CC[C@@H](O)C2)c1=O (single isomer, unassigned) [Example 167] | CDK2/Cyclin E1 (Homo sapiens (Human), UniProt P24941) | 0.17
